Data provenance is ChEMBL document CHEMBL4680084.

target: Integrin alpha-4/beta-1 (Homo sapiens, UniProt P05556+P13612); assay: Antagonist activity at alpha4beta1 in human Jurkat E6.1 cells assessed as reduction in cell adhesion to VCAM1 pre-incubated for 30 mins before VCAM1 and further incubated for 30 mins by […]; format: cell-based
READOUT_TYPE: IC50

COMPOUND | IC50
Cc1ccccc1NC(=O)N1C(=O)C[C@H]1C(=O)O | 1.39 nM
Nc1ccc(CNC(=O)N2C(=O)C[C@H]2C(=O)O)cc1.O=C(O)C(F)(F)F | 8.8 nM

Let's switch to this compound now.
Prompt: Supply recorded IC50 for O=C(O)CC1CC(=O)N1C(=O)NCc1ccccc1 (stereo not drawn) here.
Completion: > 5000 nM

---

system: K562; assay: Toxicity in human K562 cells assessed as induction of cell necrosis and/or apoptosis incubated for 3 hrs by annexin V-PE and 7-AAD staining based by flow cytometry; conditions: k562, 3 h; further: test concentration or dose not given here

COMPOUND | ASSAY_SYSTEM | Activity
Nc1ccc(CNC(=O)N2C(=O)CC2CC(=O)NCCC(=O)O)cc1.O=C(O)C(F)(F)F (stereo not drawn) | K562 | Non-Toxic
CCCCS(=O)(=O)N[C@@H](Cc1ccc(OCCCCC2CCNCC2)cc1)C(=O)O | K562 | Non-Toxic
O=C(O)CC1CC(=O)N1C(=O)NCc1ccccc1 (stereo not drawn) | K562 | Non-Toxic

---

target: Integrin alpha-V/beta-3 (Homo sapiens, UniProt P05106+P06756); experiment: Inhibition of fibronectin binding to human recombinant alphaVbeta3 expressed in HEK293 cells incubated for 1 hr by […] competitive solid-phase binding assay; type: cell-based
READOUT_TYPE: IC50 (nM)
Write down the numeric answer in nM and omit the unit.

Use the examples below as a reference point.
MOLECULE | IC50 / nM
Nc1ccc(CNC(=O)N2C(=O)CC2CC(=O)O)cc1.O=C(O)C(F)(F)F (stereo not given) | 9.9
NCc1ccc(NC(=O)N2C(=O)CC2CC(=O)NCC(=O)O)cc1.O=C(O)C(F)(F)F (stereo not given) | 1.2
O=C(O)CC1CC(=O)N1 (stereo not given) | 1.9
NCc1ccc(NC(=O)N2C(=O)CC2CC(=O)O)cc1.O=C(O)C(F)(F)F (stereo not given) | 5.6
Cc1ccccc1NC(=O)N1C(=O)C[C@H]1C(=O)O | 285

Let's switch to this molecule now.
Prompt: Supply recorded IC50 for Cc1ccccc1NC(=O)N1C(=O)CC1CC(=O)NCCC(=O)O (stereo not given) here.
Completion: 116

---

test system: K562; test: Toxicity in human K562 cells assessed as induction of cell necrosis and/or apoptosis incubated for 3 hrs by annexin V-PE and 7-AAD staining based by flow cytometry; details: k562, 3 h; further: test concentration or dose not given here
READOUT_TYPE: Activity

Use the examples below as a reference point.
COMPOUND | OBSERVED_VALUE
O=C(O)CC1CC(=O)N1 (stereo not given) | Non-Toxic
CC(C)[C@@H]1NC(=O)[C@@H](Cc2ccccc2)NC(=O)[C@H](CC(=O)O)NC(=O)CNC(=O)[C@H](CCCN=C(N)N)NC1=O [CYCLORGDFV] | Non-Toxic
NCc1ccc(NC(=O)N2C(=O)CC2CC(=O)NCC(=O)O)cc1.O=C(O)C(F)(F)F (stereo not given) | Non-Toxic
Cc1ccccc1NC(=O)N1C(=O)CC1CC(=O)NCCC(=O)O (stereo not given) | Non-Toxic

Prompt: Supply recorded Activity for Nc1ccc(CNC(=O)N2C(=O)CC2CC(=O)O)cc1.O=C(O)C(F)(F)F (stereo not given) here.
Completion: Non-Toxic

---

target: Integrin alpha-V/beta-3 (Homo sapiens, UniProt P05106+P06756); assay: Antagonist activity at alphaVbeta3 in human SK-MEL-24 cells assessed as reduction in cell adhesion to fibronectin pre-incubated for 30 mins before fibronectin and further incubated for 1 hr by nitrophenyl-N-acetyl-beta-D-glucosaminide substrate based chromogenic assay
READOUT_TYPE: IC50 (nM)
Write down the numeric answer in nM and omit the unit.

Prompt: Supply recorded IC50 for `H-GRGDTP-OH` here.
Completion: 926

---

biological target: Integrin alpha-V/beta-6 (Homo sapiens, UniProt P06756+P18564); test: Inhibition of fibronectin binding to alphaVbeta6 isolated form human HT-29 cells incubated for 1 hr by […] competitive solid-phase binding assay; type: tissue-based
pIC50: −log10 of the molar value.
Measured pIC50 by item

Use the examples below as a reference point.
COMPOUND | ASSAY_SYSTEM | READOUT_TYPE | OBSERVED_VALUE
NCc1ccc(NC(=O)N2C(=O)CC2CC(=O)NCCC(=O)O)cc1.O=C(O)C(F)(F)F (stereo not given) | Integrin alpha-V/beta-6 (Homo sapiens, UniProt P06756+P18564) | pIC50 | < 6.00
O=C(O)CC1CC(=O)N1 (stereo not given) | Integrin alpha-V/beta-6 (Homo sapiens, UniProt P06756+P18564) | pIC50 | < 6.00
Cc1ccccc1NC(=O)N1C(=O)CC1CC(=O)NCC(=O)O (stereo not given) | Integrin alpha-V/beta-6 (Homo sapiens, UniProt P06756+P18564) | pIC50 | < 6.00

Prompt: Report the value of pIC50 obtained on Integrin alpha-V/beta-6 (Homo sapiens, UniProt P06756+P18564) for NCc1ccc(NC(=O)N2C(=O)CC2CC(=O)NCC(=O)O)cc1.O=C(O)C(F)(F)F (stereo not given) .
Completion: < 6.00

Prompt: Report the value of pIC50 obtained on Integrin alpha-V/beta-6 (Homo sapiens, UniProt P06756+P18564) for Cc1ccccc1NC(=O)N1C(=O)CC1CC(=O)O (stereo not given) .
Completion: < 6.00

Prompt: Report the value of pIC50 obtained on Integrin alpha-V/beta-6 (Homo sapiens, UniProt P06756+P18564) for Cc1ccccc1NC(=O)N1C(=O)CC1CC(=O)NCCC(=O)O (stereo not given) .
Completion: 7.63

Prompt: Report the value of pIC50 obtained on Integrin alpha-V/beta-6 (Homo sapiens, UniProt P06756+P18564) for Nc1ccc(CNC(=O)N2C(=O)CC2CC(=O)O)cc1.O=C(O)C(F)(F)F (stereo not given) .
Completion: < 6.00

---

Measured EC50 by item
biological target: Integrin alpha-V/beta-5 (Homo sapiens, UniProt P06756+P18084); test: Agonist activity at alphaVbeta5 in human MCF7 cells assessed as increase in cell adhesion to fibrinogen pre-incubated for 30 mins before fibrinogen and further incubated for 1 hr by nitrophenyl-N-acetyl-beta-D-glucosaminide substrate based chromogenic assay

Use the examples below as a reference point.
MOLECULE | READOUT_TYPE | OBSERVED_VALUE
NCc1ccc(NC(=O)N2C(=O)C[C@H]2C(=O)O)cc1.O=C(O)C(F)(F)F | EC50 | > 5 µM
Cc1ccccc1NC(=O)N1C(=O)C[C@H]1C(=O)O | EC50 | > 5 µM
Cc1ccccc1NC(=O)N1C(=O)CC1CC(=O)O (stereo not given) | EC50 | > 5 µM

Prompt: Supply recorded EC50 for Nc1ccc(CNC(=O)N2C(=O)CC2CC(=O)NCCC(=O)O)cc1.O=C(O)C(F)(F)F (stereo not given) here.
Completion: > 5 µM

Prompt: Supply recorded EC50 for NCc1ccc(NC(=O)N2C(=O)CC2CC(=O)O)cc1.O=C(O)C(F)(F)F (stereo not given) here.
Completion: 0.00509 µM

---

Measured IC50 by item
biological target: Integrin alpha-IIb/beta-3 (Homo sapiens, UniProt P05106+P08514); test: Inhibition of fibrinogen binding to alpha2bbeta3 isolated from human HEL cells incubated for 1 hr by […] competitive solid-phase binding assay

Prompt: Supply recorded IC50 for O=C(O)CC1CC(=O)N1 (stereo unspecified) here.
Completion: 265 nM

Prompt: Supply recorded IC50 for `Nc1ccc(CNC(=O)N2C(=O)C[C@H]2C(=O)O)cc1.O=C(O)C(F)(F)F` here.
Completion: > 1000 nM

Prompt: Supply recorded IC50 for NCc1ccc(NC(=O)N2C(=O)CC2CC(=O)NCCC(=O)O)cc1.O=C(O)C(F)(F)F (stereo unspecified) here.
Completion: > 1000 nM

Prompt: Supply recorded IC50 for Nc1ccc(CNC(=O)N2C(=O)CC2CC(=O)O)cc1.O=C(O)C(F)(F)F (stereo unspecified) here.
Completion: > 1000 nM

Prompt: Supply recorded IC50 for NCc1ccc(NC(=O)N2C(=O)CC2CC(=O)O)cc1.O=C(O)C(F)(F)F (stereo unspecified) here.
Completion: > 1000 nM

Prompt: Supply recorded IC50 for NCc1ccc(NC(=O)N2C(=O)CC2CC(=O)NCC(=O)O)cc1.O=C(O)C(F)(F)F (stereo unspecified) here.
Completion: > 1000 nM

---

system: SK-MEL-24; experiment: Toxicity in human SK-MEL-24 cells assessed as induction of cell necrosis and/or apoptosis incubated for 3 hrs by annexin V-PE and 7-AAD staining based by flow cytometry; conditions: sk-mel-24, 3 h; further: test concentration or dose not given here

COMPOUND | Activity
NCc1ccc(NC(=O)N2C(=O)C[C@H]2C(=O)O)cc1.O=C(O)C(F)(F)F | Non-Toxic
CCCCS(=O)(=O)N[C@@H](Cc1ccc(OCCCCC2CCNCC2)cc1)C(=O)O [TIROFIBAN] | Non-Toxic
Cc1ccccc1NC(=O)N1C(=O)C[C@H]1C(=O)O | Non-Toxic
